Numbers sourced from patent US9724408B2.

Consider the following type I interferon inducing activity after SVPD treatment values measured on snake venom phosphodiesterase (SVPD).
measurement type: type I interferon inducing activity after SVPD treatment

Nc1ncnc2c1ncn2[C@@H]1O[C@@H]2COP(=O)(O)O[C@H]3[C@@H](O)[C@H](n4cnc5c(N)ncnc54)O[C@@H]3COP(=O)(O)O[C@H]2[C@H]1O [CDA, cyclic[A(3′,5′)pA(3′,5′)p], reference compound]	lost activity
Nc1ncnc2c1ncn2C1OC2COP(=O)(O)OC3C(O)C(COP(=O)(O)OC2C1O)OC3n1cnc2c(N)ncnc21 (stereo not shown) [ML-CDA, cyclic-[A(2′,5′)pA(3′,5′)p]]	lost activity

----------
tested target: Nuclease P1 (NP1) (Penicillium citrinum, UniProt P24289)
Sequence (P24289 1-270): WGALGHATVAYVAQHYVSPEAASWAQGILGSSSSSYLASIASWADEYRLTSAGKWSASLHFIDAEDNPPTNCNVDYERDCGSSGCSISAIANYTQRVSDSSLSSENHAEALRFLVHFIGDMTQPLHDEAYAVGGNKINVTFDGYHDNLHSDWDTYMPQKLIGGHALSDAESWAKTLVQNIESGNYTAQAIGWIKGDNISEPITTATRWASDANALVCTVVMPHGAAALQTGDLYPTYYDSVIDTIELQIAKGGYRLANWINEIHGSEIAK
experimental protocol: Resistance to Nuclease P1, read out in THP1-Blue ISG cells
measurement setup: 2.5 mU NP1, 2 hr at 37° C., then 50 μM on THP1-Blue ISG cells, FIG. 12
measurement type: type I interferon inducing activity after NP1 treatment

Nc1ncnc2c1ncn2C1OC2COP(=O)(O)OC3C(O)C(COP(=O)(O)OC2C1O)OC3n1cnc2c(N)ncnc21 (stereo not shown) [ML-CDA, cyclic-[A(2′,5′)pA(3′,5′)p]]	lost activity
Nc1ncnc2c1ncn2[C@@H]1O[C@@H]2COP(=O)(O)O[C@H]3[C@@H](O)[C@H](n4cnc5c(N)ncnc54)O[C@@H]3COP(=O)(O)O[C@H]2[C@H]1O [CDA, cyclic[A(3′,5′)pA(3′,5′)p], reference compound]	lost activity
